Known IC50 of a selection of compounds
- Tested on: SBC-1;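 further: cell viability assay measuring growth inhibition of the SBC-1 cell line, IC50 being the concentration that halves growth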
- assayDetails: cells
- Format: functional, cell-based, Homo sapiens
- conditionContext: Homo sapiens, SBC-1
- Description: SANGER: Inhibition of human SBC-1 cell growth in a cell viability assay.

Illustrative cases are given below, each with its answer.
>>> datavalue("COc1cc(-c2nn([C@H]3CC[C@H](N4CCN(C(C)=O)CC4)CC3)c3ncnc(N)c23)ccc1NC(=O)c1cc2ccccc2n1C")
"> 5120 nM"
>>> datavalue("OCCCNc1cc(-c2ccnc(Nc3cccc(Cl)c3)n2)ccn1")
"> 256 nM"
>>> datavalue("CC(=O)O[C@H]1C(=O)[C@@]2(C)[C@H]([C@H](OC(=O)c3ccccc3)[C@]3(O)C[C@H](OC(=O)[C@H](O)[C@@H](NC(=O)c4ccccc4)c4ccccc4)C(C)=C1C3(C)C)[C@]1(OC(C)=O)CO[C@@H]1C[C@@H]2O [PACLITAXEL]")
"50.4 nM"
>>> datavalue("COc1cc2ncn(-c3cc(OCc4ccccc4S(C)(=O)=O)c(C#N)s3)c2cc1OC [GSK-319347A]")
"> 5000 nM"

Summary for this compound, COc1cc2c(Nc3ccc(NC(=O)c4ccccc4)cc3)ncnc2cc1OCCCN1CCOCC1 : IC50 is 1040 nM

Summary for this compound, C=C(c1ccc(C(=O)O)cc1)c1cc2c(cc1C)C(C)(C)CCC2(C)C [BEXAROTENE] : IC50 is > 8000 nM

Summary for this compound, Nc1ccn([C@@H]2O[C@H](CO)[C@@H](O)C2(F)F)c(=O)n1 [GEMCITABINE] : IC50 is 166 nM

---

- System: BB30-HNC;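 further: growth inhibition of the cultured cell line, read out by a cell viability assay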
- assayDetails: cells
- Format: functional, cell-based, Homo sapiens
- conditionContext: Homo sapiens, BB30-HNC
- Description: SANGER: Inhibition of human BB30-HNC cell growth in a cell viability assay.
Known IC50 of a selection of molecules

Illustrative cases are given below, each with its answer.
>>> datavalue("CS(=O)(=O)c1ccc(C(=O)Nc2ccc(Cl)c(-c3ccccn3)c2)c(Cl)c1")
"> 0.01 mM"
>>> datavalue("C=C(c1ccc(C(=O)O)cc1)c1cc2c(cc1C)C(C)(C)CCC2(C)C")
"> 0.008 mM"

Note: attention shifts to another entry.
Summary for this molecule, CN(C)C(=N)NC(=N)N : IC50 is 10.8 mM

---

- Test system: CAPAN-1
- assayDetails: cells
- Format: functional, cell-based, Homo sapiens
- conditionContext: capan-1
- Description: SANGER: Inhibition of human CAPAN-1 cell growth in a cell viability assay.
attributeMeasured: IC50

Summary for this sequence, BLEOMYCIN : IC50 is 2920 nM

---

Known IC50 of a selection of compounds
- Test system: SNB-75;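 further: cell viability assay measuring growth inhibition of human SNB-75 cells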
- assayDetails: cells
- Assay type: functional, cell-based, Homo sapiens
- conditionContext: Homo sapiens, SNB-75
- Description: SANGER: Inhibition of human SNB75 cell growth in a cell viability assay.

>>> datavalue("COc1cc2c(Nc3ccc(NC(=O)c4ccccc4)cc3)ncnc2cc1OCCCN1CCOCC1")
"> 4 µM"

Measured IC50 (SNB-75), entry Oc1ccc2ccccc2c1SSc1c(O)ccc2ccccc12 : > 32 µM

Measured IC50 (SNB-75), entry Cc1cn(-c2cc(NC(=O)c3ccc(C)c(Nc4nccc(-c5cccnc5)n4)c3)cc(C(F)(F)F)c2)cn1 : > 2 µM

Measured IC50 (SNB-75), entry CO[C@H]1C[C@@H]2CC[C@@H](C)[C@@](O)(O2)C(=O)C(=O)N2CCCC[C@H]2C(=O)O[C@H]([C@H](C)C[C@@H]2CC[C@@H](OC(=O)C(C)(CO)CO)[C@H](OC)C2)CC(=O)[C@H](C)/C=C(\C)[C@@H](O)[C@@H](OC)C(=O)[C@H](C)C[C@H](C)/C=C/C=C/C=C/1C : > 0.2 µM

Measured IC50 (SNB-75), entry CCN(CC)CCNC(=O)c1c(C)[nH]c(/C=C2\C(=O)Nc3ccc(F)cc32)c1C : > 8 µM

Measured IC50 (SNB-75), entry CCN(CC)CCCCNc1ncc2cc(-c3cc(OC)cc(OC)c3)c(NC(=O)NC(C)(C)C)nc2n1 : > 2 µM

---

- Test system: no-11;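 further: growth inhibition of human NO-11 cells, read out with a cell viability assay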
- assayDetails: cells
- Type: functional, cell-based, Homo sapiens
- conditionContext: Homo sapiens
- Description: SANGER: Inhibition of human no-11 cell growth in a cell viability assay.
attributeMeasured: IC50 (µM)
The response must be a number in µM with no trailing unit.

>>> datavalue("CC(=O)O[C@H]1C(=O)[C@@]2(C)[C@H]([C@H](OC(=O)c3ccccc3)[C@]3(O)C[C@H](OC(=O)[C@H](O)[C@@H](NC(=O)c4ccccc4)c4ccccc4)C(C)=C1C3(C)C)[C@]1(OC(C)=O)CO[C@@H]1C[C@@H]2O")
0.0348
>>> datavalue("COc1cccc2c1C(=O)c1c(O)c3c(c(O)c1C2=O)C[C@@](O)(C(=O)CO)C[C@@H]3O[C@H]1C[C@H](N)[C@H](O)[C@H](C)O1")
0.322

Note: attention shifts to another entry.
Summary for this compound, OCCCNc1cc(-c2ccnc(Nc3cccc(Cl)c3)n2)ccn1 : IC50 is 0.0293

---

- Test system: CAL-72;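 further: cell viability assay measuring inhibition of proliferation in the CAL-72 cell line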
- assayDetails: cells
- Format: functional, cell-based, Homo sapiens
- conditionContext: Homo sapiens, CAL-72
- Description: SANGER: Inhibition of human CAL-72 cell growth in a cell viability assay.
Known IC50 of a selection of molecules

Summary for this molecule, N#Cc1c(O)c2c(-c3ccc(-c4ccccc4O)cc3)csc2[nH]c1=O : IC50 is > 1.02 µM

Summary for this molecule, CC1(C)CNc2cc(NC(=O)c3cccnc3NCc3ccncc3)ccc21 : IC50 is > 2 µM

Summary for this molecule, CCN(CC)CCCCNc1ncc2cc(-c3cc(OC)cc(OC)c3)c(NC(=O)NC(C)(C)C)nc2n1 : IC50 is > 2 µM

Summary for this molecule, COc1cccc2c1C(=O)c1c(O)c3c(c(O)c1C2=O)C[C@@](O)(C(=O)CO)C[C@@H]3O[C@H]1C[C@H](N)[C@H](O)[C@H](C)O1 : IC50 is 0.841 µM

Summary for this molecule, O=C(O)c1ccc(-c2c[nH]c3ncc(-c4ccccc4)cc23)cc1C1CCCC1 : IC50 is > 16 µM

---

- Test system: NCI-H358
- assayDetails: cells
- Format: functional, cell-based, Homo sapiens
- conditionContext: Homo sapiens, NCI-H358
- Description: SANGER: Inhibition of human NCI-H358 cell growth in a cell viability assay.
Structures can show the parent of a compound that is named as a salt.
attributeMeasured: pIC50
# reply with the number alone; pIC50 is -log10 of concentration in mol/L

Illustrative cases are given below, each with its answer.
>>> datavalue("Nc1ccn([C@@H]2O[C@H](CO)[C@@H](O)C2(F)F)c(=O)n1")
8.15
>>> datavalue("CC(C)c1ccccc1Cc1cc(C(=O)Nc2ccc(S(=O)(=O)c3ccccc3C(C)(C)C)cc2)c(O)c(O)c1O")
5.83

Summary for this compound, COC1=CC(c2cc3ccccc3[nH]2)=N/C1=C\c1[nH]c(C)cc1C [OBATOCLAX MESYLATE] : pIC50 is 7.10

---

- Tested on: TGBC11TKB;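 further: growth inhibition of human TGBC11TKB cells, measured by a cell viability assay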
- assayDetails: cells
- Type: functional, cell-based, Homo sapiens
- conditionContext: Homo sapiens, TGBC11TKB
- Description: SANGER: Inhibition of human TGBC11TKB cell growth in a cell viability assay.
pIC50: −log10 of the molar value.
attributeMeasured: pIC50

Measured pIC50 (TGBC11TKB), entry CN(C)C(=N)NC(=N)N : < 1.70

---

- Test system: OMC-1
- assayDetails: cells
- Assay type: functional, cell-based, Homo sapiens
- conditionContext: Homo sapiens, OMC-1
- Description: SANGER: Inhibition of human OMC-1 cell growth in a cell viability assay.
pIC50: −log10 of the molar value.
attributeMeasured: pIC50

>>> datavalue("CN(C)C(=N)NC(=N)N")
1.78

Summary for this molecule, CCN(CC)CCCCNc1ncc2cc(-c3cc(OC)cc(OC)c3)c(NC(=O)NC(C)(C)C)nc2n1 : pIC50 is < 5.70

Summary for this molecule, Cc1ccc(-c2c(C(=O)CCl)n(CCCO)c3ncnc(N)c23)cc1 : pIC50 is < 5.40

Summary for this molecule, Nc1ccn([C@@H]2O[C@H](CO)[C@@H](O)C2(F)F)c(=O)n1 : pIC50 is 6.23

Summary for this molecule, COc1cc2c(Nc3ccc(NC(=O)c4ccccc4)cc3)ncnc2cc1OCCCN1CCOCC1 : pIC50 is < 5.40

Summary for this molecule, CC1(C)CNc2cc(NC(=O)c3cccnc3NCc3ccncc3)ccc21 : pIC50 is < 5.70

Summary for this molecule, COc1cc2ncn(-c3cc(OCc4ccccc4C(F)(F)F)c(C(N)=O)s3)c2cc1OC [GW843682X] : pIC50 is < 6.59

Summary for this molecule, COc1cccc2c1C(=O)c1c(O)c3c(c(O)c1C2=O)C[C@@](O)(C(=O)CO)C[C@@H]3O[C@H]1C[C@H](N)[C@H](O)[C@H](C)O1 : pIC50 is 6.76

---

- Test system: TE-10
- assayDetails: cells
- Assay type: functional, cell-based, Homo sapiens
- conditionContext: te-10
- Description: SANGER: Inhibition of human TE-10 cell growth in a cell viability assay.
attributeMeasured: IC50

Summary for this sequence, CISPLATIN : IC50 is 158 µM

---

- System: KYSE-410;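 further: growth inhibition of KYSE-410 cells, measured through a cell viability readout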
- assayDetails: cells
- Type: functional, cell-based, Homo sapiens
- conditionContext: Homo sapiens, KYSE-410
- Description: SANGER: Inhibition of human KYSE-410 cell growth in a cell viability assay.
Counter-ions that a name gives are not always drawn.
Known pIC50 of a selection of molecules
# reply with the number alone; pIC50 is -log10 of concentration in mol/L

>>> datavalue("CC(C)c1ccccc1Cc1cc(C(=O)Nc2ccc(S(=O)(=O)c3ccccc3C(C)(C)C)cc2)c(O)c(O)c1O")
6.06
>>> datavalue("COc1cccc2c1C(=O)c1c(O)c3c(c(O)c1C2=O)C[C@@](O)(C(=O)CO)C[C@@H]3O[C@H]1C[C@H](N)[C@H](O)[C@H](C)O1")
6.99

Summary for this molecule, CO[C@H]1C[C@@H]2CC[C@@H](C)[C@@](O)(O2)C(=O)C(=O)N2CCCC[C@H]2C(=O)O[C@H]([C@H](C)C[C@@H]2CC[C@@H](OC(=O)C(C)(CO)CO)[C@H](OC)C2)CC(=O)[C@H](C)/C=C(\C)[C@@H](O)[C@@H](OC)C(=O)[C@H](C)C[C@H](C)/C=C/C=C/C=C/1C : pIC50 is 6.74

Summary for this molecule, Nc1ccn([C@@H]2O[C@H](CO)[C@@H](O)C2(F)F)c(=O)n1 : pIC50 is 7.25

Summary for this molecule, COC1=CC(c2cc3ccccc3[nH]2)=N/C1=C\c1[nH]c(C)cc1C [OBATOCLAX MESYLATE] : pIC50 is 7.01

The origin of these recorded values is ChEMBL document CHEMBL1201861.
